Source of measurements: patent US20120277143A1

Assay system: T1, human IL4 (human, UniProt P05112 25-153, biotinylated in the SPR and competition assays (sites not given))
T1 construct: Peprotech #200-04, mature protein produced in E. coli; also called hIL4; Interleukin 4
T1 sequence: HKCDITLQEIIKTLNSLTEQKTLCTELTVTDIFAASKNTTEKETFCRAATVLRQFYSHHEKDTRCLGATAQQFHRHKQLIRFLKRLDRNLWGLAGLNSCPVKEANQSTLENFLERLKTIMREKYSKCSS
Assay overview: IL4R binding inhibition; repeats Table 17
Procedure: AR protein inhibition of IL4 binding to IL4 RA was assessed using IL4 RA-Fc (R&D Systems), comprising the Gly24-His232 which represents the ECD (SEQ ID NO: 5) fused to a human IgGl-Fc and therefor a disulfide linked homodimer. […] Plates were read using a Luminex® 100 system; data were plotted as a function of AR protein concentration. IC₅₀ values were determined by fitting the data to the equation for sigmoidal dose response using PRISM software (GraphPAD PRISM) (Table 6).
Readout name: IC50 (nM)
Please reply with the bare figure in nM and do not write the unit itself.

Ask: // IC50 lookup, key: C06_53G6_V1_C01_6G9_V1 (designed binder, bispecific IL4/IL13 ankyrin repeat protein with (GGGGS)4 linker; also called bispecific AR protein) DLGKKLLEAARAGQDDEVRILMANGADVNATDDWGDTLLHLAATDGHLEIVEVLLKAGADVNANDAIGDTPLHLAALYGHLEIVEVLLKYGADVNATDLHGFTPLHLAAFWGHLEIVEVLLKHGADVNAQDKFGKTAFDISIDNGNEDLAEILQKLNGGGGSGGGGSGGGGSGGGGSDLDKKLLEAARAGQDDEVRILMANGADVNARDSYGSTPLHLAAREGHLEIVEVLLKYGADVNAADFIGDTPLHLAAYRGHLEIVEVLLKYGADVNASDITGETPLHLAAQIGHLEIVEVLLKHGADVNAQDKFGKTAFDISIDNGNEDLAEILQKLN
Result: 0.034
